System: PANC-1 complex spheroid growth, percent test/control
Assay procedure: Anticancer human tumor PANC-1 cell line growth inhibition [Asc];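 note: spheroids exposed to agents for 7 days; percent viability relative to DMSO vehicle wells taken as 100%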
Condition: second compound 0.0316 µM; first compound 0.0949 µM; stronger effect = lower value
Endpoint: viability, T/C (%)
Give a bare numeral; the unit % is implied.

IN: Quick check: viability, T/C of Cc1nc(N2CCC3(CC2)COC(C)C3N)c(CO)nc1Sc1ccnc(N)c1Cl (stereo unspecified) + CNC(C)C(=O)NC1CN(S(=O)(=O)c2cccc(S(=O)(=O)N3CCC4CCC(C(=O)NC(c5ccccc5)c5ccccc5)N4C(=O)C(NC(=O)C(C)NC)C3)c2)CCC2CCC(C(=O)NC(c3ccccc3)c3ccccc3)N2C1=O ?
OUT: 92.8

IN: Form field: reported viability, T/C of Cc1nc(N2CCC3(CC2)COC(C)C3N)c(CO)nc1Sc1ccnc(N)c1Cl (stereo unspecified) + Cc1c(S(C)(=O)=O)c(-c2cc(F)cc(N3CCN(c4ccc(NS(=O)(=O)c5ccc(NC(CCN6CCC(C(=O)OCCCP(=O)(O)O)CC6)CSc6ccccc6)c(S(=O)(=O)C(F)(F)F)c5)cc4)CC3)c2)c(-c2ccc(Cl)cc2)n1C(C)C
OUT: 88.2

IN: Please give the measured viability, T/C for this molecule: NC(=O)C(=Cn1cnc(-c2cc(C(F)(F)F)cc(C(F)(F)F)c2)n1)c1cncnc1 + Cc1c(S(C)(=O)=O)c(-c2cc(F)cc(N3CCN(c4ccc(NS(=O)(=O)c5ccc(NC(CCN6CCC(C(=O)OCCCP(=O)(O)O)CC6)CSc6ccccc6)c(S(=O)(=O)C(F)(F)F)c5)cc4)CC3)c2)c(-c2ccc(Cl)cc2)n1C(C)C
OUT: 118

IN: Report viability, T/C for CCN1C(C(=O)NC23CCC(C(=O)O)(CC2)CC3)C(c2cccc(Cl)c2F)C2(C(=O)Nc3cc(Cl)ccc32)C12CCCCC2 (stereo unspecified) + CNC(C)C(=O)NC1CN(S(=O)(=O)c2cccc(S(=O)(=O)N3CCC4CCC(C(=O)NC(c5ccccc5)c5ccccc5)N4C(=O)C(NC(=O)C(C)NC)C3)c2)CCC2CCC(C(=O)NC(c3ccccc3)c3ccccc3)N2C1=O please.
OUT: 101

IN: State the recorded viability, T/C for this entry: CCN1C(C(=O)NC23CCC(C(=O)O)(CC2)CC3)C(c2cccc(Cl)c2F)C2(C(=O)Nc3cc(Cl)ccc32)C12CCCCC2 (stereo unspecified) + Cc1c(S(C)(=O)=O)c(-c2cc(F)cc(N3CCN(c4ccc(NS(=O)(=O)c5ccc(NC(CCN6CCC(C(=O)OCCCP(=O)(O)O)CC6)CSc6ccccc6)c(S(=O)(=O)C(F)(F)F)c5)cc4)CC3)c2)c(-c2ccc(Cl)cc2)n1C(C)C
OUT: 93.7

IN: Which viability, T/C value is on record for NC(=O)C(=Cn1cnc(-c2cc(C(F)(F)F)cc(C(F)(F)F)c2)n1)c1cncnc1 + CNC(C)C(=O)NC1CN(S(=O)(=O)c2cccc(S(=O)(=O)N3CCC4CCC(C(=O)NC(c5ccccc5)c5ccccc5)N4C(=O)C(NC(=O)C(C)NC)C3)c2)CCC2CCC(C(=O)NC(c3ccccc3)c3ccccc3)N2C1=O ?
OUT: 90.5

Where do these numbers come from? They come from PubChem BioAssay AID1963435.
